Target: T1, native MSP-3 antigen of Plasmodium falciparum clone 3D7 schizonts and merozoites (Plasmodium falciparum)
T1 construct: whole, on cells; The motif 220-230 is also present in MSP-6; also called native malaria antigen; parasite proteins
Test: flow cytometry on ethanol-fixed permeabilized schizonts, FITC anti-human Fab
Property: percent of events under the bar M1; scope: individual binders
# value in %; strip the unit string

Completed entries (count: 3):
{"binder": "RAM2 Fab-ΔpIII (Fab, V domains shown, Human Fab made in E. coli from pFAB73H; VH is joined to human gamma 1 CH1 (residues 118 to 230), then a spacer with a trypsin site and truncated f1 phage pIII (ΔpIII); The light chain is VK plus human kappa constant domain; also called Fab-ΔpIII RAM2; RAM2 in the Fab-ΔpIII format) VH: QVQLQESGGGLVKPGGSLKLSCAASGFTFSSYGMSWVRQTPDKRLEWVATISSGGSYTYYPDSVKGRFTISRDNAKNTLYLQMSSLKSEDTAMYYCARLYYGYRYYFDYWGQGTMVTVSS VL: DIQLTQSPSSLSASIGDRVTITCQASQDITNSLNWYQQRPGQAPKLLIYDAFTLKTGVPSRFSGRGSGTSFTIAINSFQAEDIGTYFCQQSHRVPFTFGGGTRVEIKR", "value.unit": "%", "assay.value": 28}
{"binder": "RAM1 Fab-ΔpIII (Fab, V domains shown, Human Fab made in E. coli from pFAB73H; VH is joined to human gamma 1 CH1 (residues 118 to 230 of the H chain), then a spacer with a trypsin cleavage site and truncated f1 phage protein pIII (ΔpIII); The light chain is VK plus human kappa constant domain; also called Fab-ΔpIII RAM1; RAM1 in the Fab-ΔpIII format) VH: QVQLVQSGGGVVQPGRSLRLSCAASGFTFSSYAMHWVRQAPGKGLEWVAVISYDGSNKYYADSVKGRFTISRDNSKNTLYLQMSSLRAEDTAVYYCVKGASSWSTGTLVTVSS VL: DIVMMQSPATLSASVGDRVTITCRASQSISSWLAWYQQKPGKAPNLLIYKASSLESGVPSRFSGSGSGTEFTLTISSLQPDDFATYYCQQYKSFPYTFGQGTRLEIKR", "value.unit": "%", "assay.value": 76}
{"binder": "RAM3 Fab-ΔpIII (Fab, V domains shown, Human Fab made in E. coli from pFAB73H; VH is joined to human gamma 1 CH1 (residues 118 to 230), then a spacer with a trypsin site and truncated f1 phage pIII (ΔpIII); The light chain is VK plus human kappa constant domain; also called Fab-ΔpIII RAM3; RAM3 in the Fab-ΔpIII format) VH: QVQLVQSGGGVVQPGRSLRLSCAASGFTFSSYAMHWVRQAPGKGLEWVAVISYDGSNKYYADSVKGRFTISRDNSKNTLYLQMNSLRAEDKAVYYCARDSGGIAARLGGYFDLWGRGTTVTVSS VL: DIRMTQSPSFLSASVGDRVTITCRASQGISSYLAWYQQKPGKAPKLLIYAASTLQSGVPSRFSGSGSGTEFTLTISSLQPEDFATYYCQQGPTFGGGTKVEIKR", "value.unit": "%", "assay.value": 4}

Shifting focus to the binder that follows.
**Query** Suppose we examine the binder RAM1 IgG1 (antibody, V domains shown, Intact human IgG1 kappa, allotype G1m(a,z), made in CHO cells from pLNOH2 and pLNOK; also called IgG1 anti-MSP3; RAM1 in the IgG1 format) VH: QVQLVQSGGGVVQPGRSLRLSCAASGFTFSSYAMHWVRQAPGKGLEWVAVISYDGSNKYYADSVKGRFTISRDNSKNTLYLQMSSLRAEDTAVYYCVKGASSWSTGTLVTVSS VL: DIVMMQSPATLSASVGDRVTITCRASQSISSWLAWYQQKPGKAPNLLIYKASSLESGVPSRFSGSGSGTEFTLTISSLQPDDFATYYCQQYKSFPYTFGQGTRLEIKR ; what percent of events under the bar M1 value has been reported?
**Result** 47
